- testDescription: solubility of the compound in common solvents
- Assay type: physicochemical
- details: 25-30° C.; methyl tert-butyl ether
Assignment: determine reported solubility in MTBE for the given compounds.

Query: Consider the compound shown here: CCCCCCCCCCCCCOc1cc(C(=O)NCCOCCOc2ccc(C(O)(c3ccccc3)c3ccc(Cl)cc3)cc2)cc(OCCCCCCCCCCCCC)c1OCCCCCCCCCCCCC (stereo not drawn) What is its recorded solubility in MTBE?
Response: >50%

Query: Input CCCCCCCCCCCCCOc1cc(C(=O)N(C)CCOc2ccc(C(N)c3ccccc3)cc2)cc(OCCCCCCCCCCCCC)c1OCCCCCCCCCCCCC (stereo not drawn)
Response: >100%

Query: Input CCCCCCCCCCCCCOc1cc(C(=O)NCCOCCOc2ccc(C(O)(c3ccccc3)c3ccccc3)cc2)cc(OCCCCCCCCCCCCC)c1OCCCCCCCCCCCCC
Response: >10%

---

- testDescription: solubility of the compound in common solvents
- Type: physicochemical
- details: 25-30° C.; N,N-dimethylformamide
Assignment: determine reported solubility in DMF for the given compounds.

Query: Consider the compound shown here: CCCCCCCCCCCCCOc1cc(C(=O)NCCOCCOc2ccc(C(O)(c3ccccc3)c3ccccc3Cl)cc2)cc(OCCCCCCCCCCCCC)c1OCCCCCCCCCCCCC (stereo not drawn) What is its recorded solubility in DMF?
Response: >40%

Query: Input CCCCCCCCCCCCCOc1ccc(CN(CCOCCOc2ccc(C(N)c3ccccc3)cc2)C(=O)c2cc(OCCCCCCCCC)c(OCCCCCCCCC)c(OCCCCCCCCC)c2)cc1OCCCCCCCCCCCCC (stereo not drawn)
Response: >100%

Query: Input CCCCCCCCCCCCOc1cc(C(=O)NCCOCCOc2ccc(C(N)c3ccccc3)cc2)cc(OCCCCCCCCCCCC)c1OCCCCCCCCCCCC (stereo not drawn)
Response: >30%

---

- testDescription: solubility of the compound in common solvents
- Type: physicochemical
- details: 25-30° C.; heptane
Assignment: determine reported solubility in Heptane for the given compounds.

Query: Consider the compound shown here: CC(C)CCCC(C)CCCC(C)CCCC(C)CCOc1ccc(C(N)c2ccc(OCCC(C)CCCC(C)CCCC(C)CCCC(C)C)cc2)cc1 (stereo not shown) [REF-001, reference compound] What is its recorded solubility in Heptane?
Response: >50%

Query: Input CCCCCCCCCCCCCOc1cc(C(=O)N(C)CCOc2ccc(C(N)c3ccccc3)cc2)cc(OCCCCCCCCCCCCC)c1OCCCCCCCCCCCCC (stereo not shown) [DPA-026]
Response: >50%

Query: Input CC(C)CCCC(C)CCCC(C)CCCC(C)CCOc1cc(COc2ccc(C(N)c3ccccc3)cc2)cc(OCCC(C)CCCC(C)CCCC(C)CCCC(C)C)c1OCCC(C)CCCC(C)CCCC(C)CCCC(C)C (stereo not shown) [REF-002, reference compound]
Response: >100%

Query: Input CCCCCCCCCCCCCOc1ccc(CN(CC(=O)NCCOCCOc2ccc(C(N)c3ccccc3)cc2)C(=O)c2cc(OCCCCCCCCC)c(OCCCCCCCCC)c(OCCCCCCCCC)c2)cc1OCCCCCCCCCCCCC (stereo not shown) [DPA-031]
Response: >50%

Query: Input CCCCCCCCCCCCCOc1cc(C(=O)NCCOCCOc2ccc(C(O)(c3ccccc3)c3ccccc3)cc2)cc(OCCCCCCCCCCCCC)c1OCCCCCCCCCCCCC [DPA-032]
Response: >10%

Query: Input CCCCCCCCCCCCOc1cc(C(=O)NCCOCCOc2ccc(C(N)c3ccccc3)cc2)cc(OCCCCCCCCCCCC)c1OCCCCCCCCCCCC (stereo not shown) [DPA-023]
Response: >50%

Query: Input CCCCCCCCCCCCCOc1ccc(CN(CC(=O)NCCOCCOc2ccc(C(N)c3ccccc3)cc2)C(=O)CC(C)CC(C)(C)C)cc1OCCCCCCCCCCCCC (stereo not shown) [DPA-030]
Response: >40%

Query: Input CCCCCCCCCCCCCOc1ccc(CN(CCOCCOc2ccc(C(N)c3ccccc3)cc2)C(=O)CC(C)CC(C)(C)C)cc1OCCCCCCCCCCCCC (stereo not shown) [DPA-028]
Response: >100%

Query: Input CCCCCCCCCCCCCOc1cc(C(=O)NCCOCCOc2ccc(C(O)(c3ccccc3)c3ccc(Cl)cc3)cc2)cc(OCCCCCCCCCCCCC)c1OCCCCCCCCCCCCC (stereo not shown) [DPA-034]
Response: >30%

Query: Input CCCCCCCCCCCCCOc1ccc(CN(CCOCCOc2ccc(C(N)c3ccccc3)cc2)C(=O)c2cc(OCCCCCCCCC)c(OCCCCCCCCC)c(OCCCCCCCCC)c2)cc1OCCCCCCCCCCCCC (stereo not shown) [DPA-029]
Response: >100%
